# PathHunter IC50 (441 pM canine NGF) annotations
Biological target: T1, recombinant canine β NGF (canine, UniProt Q29074 110-229 (pig entry))
T1 chain: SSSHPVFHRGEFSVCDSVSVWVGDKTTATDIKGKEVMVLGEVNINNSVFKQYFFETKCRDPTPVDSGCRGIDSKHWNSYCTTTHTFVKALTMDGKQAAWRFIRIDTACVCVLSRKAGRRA
Test: cell-based or functional assay

Binder	PathHunter IC50 (441 pM canine NGF)
PR-1254982 (antibody, mouse IgG1, V domains shown) VH: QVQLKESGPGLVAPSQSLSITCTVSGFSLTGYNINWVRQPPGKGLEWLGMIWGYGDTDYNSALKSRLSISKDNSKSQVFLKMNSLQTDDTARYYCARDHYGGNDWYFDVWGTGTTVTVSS VL: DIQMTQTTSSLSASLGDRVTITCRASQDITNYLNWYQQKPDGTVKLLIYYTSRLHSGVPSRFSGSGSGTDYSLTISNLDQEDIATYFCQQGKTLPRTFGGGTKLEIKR	< 1 nM

Please look at the following binder next.
Recorded result, PR-1254980 (antibody, mouse IgG1, V domains shown, also called 23F1; ML129-23F1.4G3) VH: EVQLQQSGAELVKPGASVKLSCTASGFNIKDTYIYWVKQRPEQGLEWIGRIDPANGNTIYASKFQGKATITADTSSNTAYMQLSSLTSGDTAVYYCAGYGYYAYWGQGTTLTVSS VL: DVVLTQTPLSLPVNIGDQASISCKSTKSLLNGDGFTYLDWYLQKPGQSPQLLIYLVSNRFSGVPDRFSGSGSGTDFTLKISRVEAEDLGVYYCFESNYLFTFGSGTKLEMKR , PathHunter IC50 (441 pM canine NGF): < 1 nM
